# testedOn: T1, human GIP receptor (human, UniProt P48546 22-466)
# T1 sequence (looked up): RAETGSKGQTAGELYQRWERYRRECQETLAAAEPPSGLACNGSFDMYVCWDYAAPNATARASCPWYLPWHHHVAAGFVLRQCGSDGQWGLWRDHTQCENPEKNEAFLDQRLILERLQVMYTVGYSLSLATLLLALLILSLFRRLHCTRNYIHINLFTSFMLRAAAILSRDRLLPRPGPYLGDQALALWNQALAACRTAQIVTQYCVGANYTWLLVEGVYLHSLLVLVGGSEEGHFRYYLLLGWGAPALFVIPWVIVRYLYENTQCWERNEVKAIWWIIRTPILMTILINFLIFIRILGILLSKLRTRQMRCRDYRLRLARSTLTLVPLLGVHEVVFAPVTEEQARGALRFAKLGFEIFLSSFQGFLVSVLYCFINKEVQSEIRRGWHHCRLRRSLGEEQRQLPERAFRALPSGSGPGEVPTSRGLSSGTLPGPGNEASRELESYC
# experimentSummary: cell-based or functional assay
propertyLabel: cAMP Emax (1.0% HSA) (%)
Express the result in % but write the number alone.

binder	propertyLabel	measured
YXEGTXTSDXXIXLDXIAQXKFIKXLIEGGPSSGAPPPS (Aib2, αMeF(2F)6, 4Pal10, αMeS11, αMeL13, Orn16, Aib20, αMeY25; acylated K21, K24 (groups as in name); C-terminal amide)	cAMP Emax (1.0% HSA)	91.3
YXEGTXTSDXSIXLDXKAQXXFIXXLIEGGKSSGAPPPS (Aib2, αMeF(2F)6, 4Pal10, αMeL13, Orn16, Aib20, 4Pal21, D-Glu24, αMeY25; acylated K17, K31 (groups as in name); C-terminal amide)	cAMP Emax (1.0% HSA)	89.6
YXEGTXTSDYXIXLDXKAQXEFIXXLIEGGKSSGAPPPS (Aib2, αMeF(2F)6, Dap11, αMeL13, Orn16, Aib20, D-Glu24, αMeY25; acylated K17, K31 (groups as in name); C-terminal amide)	cAMP Emax (1.0% HSA)	83.7
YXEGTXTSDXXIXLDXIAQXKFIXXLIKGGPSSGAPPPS (Aib2, αMeF(2F)6, 4Pal10, αMeS11, αMeL13, Orn16, Aib20, D-Glu24, αMeY25; acylated K21, K28 (groups as in name); C-terminal amide)	cAMP Emax (1.0% HSA)	62.7
YXEGTXTSDVXIXLDXKAQXEFIXXLIEGGKSSGAPPPS (Aib2, αMeF(2F)6, αMeS11, αMeL13, Orn16, Aib20, D-Glu24, αMeY25; acylated K17, K31 (groups as in name); C-terminal amide)	cAMP Emax (1.0% HSA)	81

Proceed to the following item.
So what does the record say about cAMP Emax (1.0% HSA) for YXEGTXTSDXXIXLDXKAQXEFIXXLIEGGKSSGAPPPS (Aib2, αMeF(2F)6, 4Pal10, Tle11, αMeL13, Orn16, Aib20, D-Glu24, αMeY25; acylated K17, K31 (groups as in name); C-terminal amide) ?
75.3
